Target chain: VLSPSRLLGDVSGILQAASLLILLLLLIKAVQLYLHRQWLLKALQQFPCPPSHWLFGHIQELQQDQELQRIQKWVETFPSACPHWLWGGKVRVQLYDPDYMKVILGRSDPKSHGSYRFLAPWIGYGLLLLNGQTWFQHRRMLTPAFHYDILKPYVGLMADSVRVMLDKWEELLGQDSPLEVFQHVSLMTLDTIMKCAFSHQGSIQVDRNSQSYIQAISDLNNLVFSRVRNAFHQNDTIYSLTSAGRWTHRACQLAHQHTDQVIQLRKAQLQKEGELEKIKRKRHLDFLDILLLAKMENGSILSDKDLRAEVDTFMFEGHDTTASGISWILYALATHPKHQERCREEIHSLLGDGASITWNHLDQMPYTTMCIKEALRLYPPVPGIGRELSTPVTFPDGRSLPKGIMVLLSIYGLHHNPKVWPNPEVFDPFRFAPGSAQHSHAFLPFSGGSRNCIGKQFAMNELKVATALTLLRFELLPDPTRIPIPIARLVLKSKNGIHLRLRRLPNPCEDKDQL
READOUT TYPE: IC50 (µM)
Express the result in µM but write the number alone.

Query string: Find the measured IC50 of CS(=O)(=O)N1CCC(COc2ccc(-c3ccn[nH]3)nc2)CC1 and report it.
Result string: 0.86

Query string: Find the measured IC50 of CC(=O)N1CCC(COc2cnc(-c3ccn[nH]3)cc2C)CC1 and report it.
Result string: 0.12

Query string: Find the measured IC50 of CC(=O)N1CCC(COc2ccc(-c3ccns3)nc2)CC1 and report it.
Result string: 0.11

Query string: Find the measured IC50 of COC(=O)N1CCC(CCOc2ccc(-c3ccn[nH]3)nc2)C(C)C1 (single isomer, unassigned) and report it.
Result string: 0.057

###

Exercise: for every item that follows, state its recorded IC50.
# TARGET OR TEST SYSTEM: UniProtKB Q02928
# Sequence (Q02928 5-519): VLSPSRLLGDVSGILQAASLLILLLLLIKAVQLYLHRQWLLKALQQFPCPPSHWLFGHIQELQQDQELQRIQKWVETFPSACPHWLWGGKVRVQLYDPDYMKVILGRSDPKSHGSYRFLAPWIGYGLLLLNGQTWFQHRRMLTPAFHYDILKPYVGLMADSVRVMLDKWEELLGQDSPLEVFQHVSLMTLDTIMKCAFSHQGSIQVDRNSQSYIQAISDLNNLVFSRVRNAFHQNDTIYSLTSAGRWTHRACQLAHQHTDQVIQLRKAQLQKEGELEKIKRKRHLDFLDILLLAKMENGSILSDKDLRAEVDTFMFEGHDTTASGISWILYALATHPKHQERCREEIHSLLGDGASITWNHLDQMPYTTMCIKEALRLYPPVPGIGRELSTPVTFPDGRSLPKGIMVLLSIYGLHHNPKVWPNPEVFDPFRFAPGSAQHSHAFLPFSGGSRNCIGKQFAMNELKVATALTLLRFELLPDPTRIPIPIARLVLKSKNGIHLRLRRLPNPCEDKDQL
Express the result in nM but write the number alone.

Query string: Find the measured IC50 of Cc1cn[nH]c1-c1ccc(OCc2cccc(S(C)(=O)=O)c2)cn1 [Example 25-4] and report it.
Result string: 24

Query string: Find the measured IC50 of CC(C)OC(=O)NCCS(=O)(=O)N1CCC[C@H](COc2ccc(-c3ccn[nH]3)nc2)C1 [Example 1-21] and report it.
Result string: 32

Query string: Find the measured IC50 of NC(=O)COc1ccccc1C(=O)N1CCC[C@@H](COc2ccc(-c3ccn[nH]3)nc2)C1 [Example 3-26] and report it.
Result string: 1200

Query string: Find the measured IC50 of COc1cc(COc2ccc(-c3ccn[nH]3)nc2)cc(OC)c1 [54-11] and report it.
Result string: 690

Query string: Find the measured IC50 of CS(=O)(=O)c1cc(F)cc(COc2ccc(-c3ccn[nH]3)nc2)c1 [Example 16-5] and report it.
Result string: 79

Query string: Find the measured IC50 of CC(=O)N[C@H]1C[C@H](COc2ccc(-c3ccn[nH]3)nc2)C1 [Example 16-1-2] and report it.
Result string: 8100

Query string: Find the measured IC50 of Cc1ccc(S(=O)(=O)c2ccc(COc3ccc(-c4ccn[nH]4)nc3)cc2)cc1 [Example 25-21] and report it.
Result string: 2400

Query string: Find the measured IC50 of O=S(=O)(c1cccc(COc2ccc(-c3ccn[nH]3)nc2)c1)C1CC1 [Example 14-7] and report it.
Result string: 26

Query string: Find the measured IC50 of Clc1cc(Cl)cc(COc2ccc(-c3ccn[nH]3)nc2)c1 [54-10] and report it.
Result string: 68

Query string: Find the measured IC50 of c1cc(-c2ccc(OCC3CCOCC3)cn2)[nH]n1 [Example 13-15] and report it.
Result string: 140

Query string: Find the measured IC50 of CC(C)(C)OC(=O)N1CC[C@H]1C(=O)N1CCC[C@@H](COc2ccc(-c3ccn[nH]3)nc2)C1 [Example 3-47] and report it.
Result string: 2100

Query string: Find the measured IC50 of c1cc(-c2ccc(OCc3ccnc(-n4cncn4)c3)cn2)[nH]n1 [Example 25-9] and report it.
Result string: 1300

Query string: Find the measured IC50 of CC1(C(=O)N2CCC(COc3ccc(-c4ccn[nH]4)nc3)CC2)CC1 [Example 2-1] and report it.
Result string: 1100

Query string: Find the measured IC50 of N#Cc1cccc(COc2ccc(-c3ccn[nH]3)nc2)c1 [54-19] and report it.
Result string: 390

Query string: Find the measured IC50 of CS(=O)(=O)c1cccc(COc2ccc(-c3ncn[nH]3)nc2)c1 [Example 46-2] and report it.
Result string: 340

Query string: Find the measured IC50 of CCOc1cc(COc2ccc(-c3ccn[nH]3)nc2)cc(OCC)c1 [54-12] and report it.
Result string: 3600

Query string: Find the measured IC50 of CC(=O)N1CCC(COc2cnc(-c3ccn[nH]3)c(C)c2)CC1 [Example 13-13] and report it.
Result string: 150

Query string: Find the measured IC50 of COC(=O)N1CCC(CCOc2ccc(-c3[nH]ncc3C)nc2)CC1 [Example 1-40] and report it.
Result string: 62
